Test system: ENR+CD organoids (ISC to Paneth cell differentiation)
assayText: Primary screen: basal (non-stimulated) lysozyme secretion LYZ.NS, 2.5-D 384-well ENR+CD organoid differentiation
Format: cell-based, mouse
reportedConditions: primary screen, dose 0.08 uM
Would you please tag the item Fulfilled when its Dose.FC.LYZ.NS (log2 fold change) is 0.07 or above, and Not fulfilled when it is below?

Please review the following examples before continuing.
                                   compound                               assaytarget     grouplabel
0  O=C(C[S+]([O-])Cc1ccco1)NC/C=C\COc1cc(CN2CCCCC2)ccn1 (stereo not drawn)  ENR+CD organoids (ISC to Paneth cell differentiation)  Not fulfilled
1    O=C(Nc1ccccc1)c1cc([N+](=O)[O-])ccc1Cl  ENR+CD organoids (ISC to Paneth cell differentiation)  Not fulfilled
2  COc1cc(-n2c(=S)[nH]c3ccccc3c2=O)c(Cl)cc1Cl  ENR+CD organoids (ISC to Paneth cell differentiation)      Fulfilled

Confirm if Dose.FC.LYZ.NS (log2 fold change) reported for the compound CCc1cc(Nc2nccc(-c3c(-c4ccc(OC)c(C(=O)Nc5c(F)cccc5F)c4)nc4ccccn34)n2)c(OC)cc1N1CCC(N2CCN(S(C)(=O)=O)CC2)CC1 [GSK1904529A] is 0.07 or above. Fulfilled

Try the compound `Cc1cccc(-c2nn3c(c2-c2ccnc4ccc(C(N)=O)cc24)CCC3)n1` Fulfilled

Try the compound `CCn1c(-c2nonc2N)nc2c(C#CC(C)(C)O)ncc(OC[C@H]3CCCNC3)c21` Not fulfilled

Try the compound `N#Cc1ccc(C(c2ccc(C#N)cc2)n2cncn2)cc1` Not fulfilled

---

Field: Z.CTG (standard z score). Provide a value for each of the compounds that follow.
Tested on: ENR+CD organoids
assayText: Primary screen: ATP (CellTiter-Glo 3D, CTG) cell number/viability, 2.5-D 384-well ENR+CD organoids
reportedConditions: primary screen, dose 2.00 uM
Answers are plain numbers.

Below are worked cases with known answers.
>>> df
                                   compound       assaytarget  reportedmeasurement
0  CCOC(=O)CCNc1cc(N2CCc3ccccc3CC2)nc(-c2ccccn2)n1.Cl [GSK J4 HCl]  ENR+CD organoids                0.006
1  CCCS(=O)(=O)Nc1ccc(F)c(C(=O)c2c[nH]c3ncc(-c4ccc(Cl)cc4)cc23)c1F  ENR+CD organoids               −0.014
2  Cc1ccc(NC(=O)C2(c3ccc4c(c3)OC(F)(F)O4)CC2)nc1-c1cccc(C(=O)O)c1  ENR+CD organoids               −0.346

Any idea what its Z.CTG (standard z score) is? The compound is `COc1ccc(COc2ccc(Cc3cnc(N)nc3N)cc2OC)cc1` 0.068

---

Test system: ENR+CD organoids
assayText: Primary screen: ATP (CellTiter-Glo 3D, CTG) cell number/viability, 2.5-D 384-well ENR+CD organoids;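 further: compounds given at plating and again on day 3 over a 6-day differentiation from ENR+CV stem-cell-enriched precursors, ATP measured on day 6, plate median as control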
reportedConditions: primary screen, dose 10.00 uM
Counter-ions that a name gives are not always drawn.
Would you please tag the item 1 (yes) when its Dose.FC.CTG is -0.1 log2 fold change or above, and 0 (no) when it is below?

Confirm if Dose.FC.CTG reported for the compound CN1CCC[C@@H]1CCO[C@](C)(c1ccccc1)c1ccc(Cl)cc1 [Clemastine Fumarate] is -0.1 log2 fold change or above. 0 (no)

Try the compound `C=C[C@@]1(C)CC(=O)[C@]2(O)[C@@]3(C)[C@@H](O)CCC(C)(C)[C@@H]3[C@H](O)[C@H](OC(C)=O)[C@@]2(C)O1` 0 (no)

Try the compound `CCNC(=O)c1noc(-c2cc(C(C)C)c(O)cc2O)c1-c1ccc(CN2CCOCC2)cc1` 0 (no)

Try the compound `COc1cc2c(cc1O)CC[C@@H]1[C@@H]2CC[C@]2(C)[C@@H](O)CC[C@@H]12` 0 (no)

Try the compound `CC(=O)Nc1cccc2c1c(Sc1ccc(Cl)cc1)c(C)n2CC(=O)O` 1 (yes)

---

Tested on: ENR+CD organoids (ISC to Paneth cell differentiation)
assayText: Primary screen: CCh-stimulated lysozyme secretion LYZ.S, 2.5-D 384-well ENR+CD organoid differentiation
Assay type: cell-based, mouse
reportedConditions: primary screen, dose 2.00 uM, FC relative to plate median
So basically: is Dose.FC.LYZ.S under -0.1 log2 fold change? Then 1.0. Not under? Then 0.0.

Please review the following examples before continuing.
In [3]: df
Out[3]:
                                   compound  grouplabel
0  CC(C)[C@H](O)C(=O)N[C@@H](C)C(=O)N[C@@H]1C(=O)N(C)CCc2ccccc21         0.0
1  O=C(NC(Cc1cc(=O)[nH]c2ccccc12)C(=O)O)c1ccc(Cl)cc1 (centres unmarked) [Rebamipide]         1.0
2  COc1cc(OC)c(/C=C/S(=O)(=O)Cc2ccc(OC)c(NCC(=O)O)c2)c(OC)c1         1.0
3  O=C(/C=C/c1ccccc1)NC(NC(=S)Nc1ccc(Cl)cc1)C(Cl)(Cl)Cl (centres unmarked)         0.0
4  Cc1ccc(S(=O)(=O)Cc2nc(-c3ccc(C(=O)NCc4cccnc4)cc3)oc2C)cc1         1.0
5  CCOC(=O)c1ccc(N2NC(=O)/C(=C/c3ccc([N+](=O)[O-])o3)C2=O)cc1         0.0
6   CNC(=C[N+](=O)[O-])NCCSCc1ccc(CN(C)C)o1         0.0

Lab log: compare recorded Dose.FC.LYZ.S with -0.1 log2 fold change; is it strictly lower for `Oc1c2ccccc2c2c3c(cccc13)N=N2` ? 0.0

---

Test system: ENR+CD organoids (ISC to Paneth cell differentiation)
assayText: Primary screen: basal (non-stimulated) lysozyme secretion LYZ.NS, 2.5-D 384-well ENR+CD organoid differentiation
Assay type: cell-based, mouse
reportedConditions: primary screen, dose 10.00 uM
outcomeMeasure: Dose.FC.LYZ.NS (log2 fold change)
Answers are plain numbers, in log2 fold change.

Below are worked cases with known answers.
compound	Dose.FC.LYZ.NS, log2 fold change
CC[C@H](NC(=O)[C@H](C)NC)C(=O)N1C[C@@H](O)C[C@H]1Cc1c(-c2[nH]c3cc(F)ccc3c2C[C@@H]2C[C@H](O)CN2C(=O)[C@H](CC)NC(=O)[C@H](C)NC)[nH]c2cc(F)ccc12	−0.029
Nc1ncnc2n[nH]c(Nc3ccc(F)cc3)c12	−0.037
Cc1cc2c(C(C)C)c(O)c(O)c(C=O)c2c(O)c1-c1c(C)cc2c(C(C)C)c(O)c(O)c(C=O)c2c1O	−0.052
Cl.N[C@@H]1C[C@H]1c1ccccc1 (racemic) [Tranylcypromine (2-PCPA) HCl]	−0.045

Respectfully, I request Dose.FC.LYZ.NS for each entry included below.
1. CCOC(=O)C1=C(C)NC(C)=C(C(=O)OC)C1c1cccc(Cl)c1Cl (stereo not shown)
2. C=C1C(=O)O[C@H]2[C@H]1CC/C(C)=C/CC[C@@]1(C)O[C@@H]21 [(−)-Parthenolide]
3. CNC(=O)[C@H](Cc1ccccc1)NC(=O)[C@H](CC(C)C)[C@H](CSc1cccs1)C(=O)NO
4. CNCc1ccc(-c2cc(-c3nc(-c4ccc(S(=O)(=O)C(C)C)cc4)cnc3N)on2)cc1
5. Cc1ccccc1C(=O)Nc1ccc(C(=O)N2CCCC(O)c3cc(Cl)ccc32)c(C)c1 (stereo not shown)
6. C[C@]12C=CC(=O)N[C@@H]1CC[C@@H]1[C@@H]2CC[C@]2(C)[C@@H](C(=O)Nc3cc(C(F)(F)F)ccc3C(F)(F)F)CC[C@@H]12 [Dutasteride]

−0.056
0.133
−0.075
−0.210
−0.093
−0.092

---

System: ENR+CD organoids (ISC to Paneth cell differentiation)
assayText: Primary screen: basal (non-stimulated) lysozyme secretion LYZ.NS, 2.5-D 384-well ENR+CD organoid differentiation
Type: cell-based, mouse
reportedConditions: primary screen, dose 0.40 uM
So basically: is Z.LYZ.NS (standard z score) under 0.008? Then fulfilled. Not under? Then not fulfilled.

                                   compound     grouplabel
0  CC(C)(C#N)c1cc(Cn2cncn2)cc(C(C)(C)C#N)c1 [Anastrozole]  not fulfilled
1  O=C(/C=C\n1cnc(-c2cc(C(F)(F)F)cc(C(F)(F)F)c2)n1)NNc1cnccn1 [KPT-330]      fulfilled
2  CC#CCn1c(N2CCC[C@@H](N)C2)nc2c1c(=O)n(Cc1nc(C)c3ccccc3n1)c(=O)n2C [Linagliptin]  not fulfilled
3  Cn1c(N2CCCCS2(=O)=O)nc(C(=O)NCc2ccc(F)cc2)c(O)c1=O [BMS-707035]  not fulfilled
4  CC(C)CCNC(=O)[C@H](CC(C)C)NC(=O)[C@H]1O[C@@H]1C(=O)O [Loxistatin Acid (E-64C)]  not fulfilled

Lab log: compare recorded Z.LYZ.NS (standard z score) with 0.008; is it strictly lower for CC(=O)Nc1nc2c(Oc3cc(-c4ccc(C(F)(F)F)cc4)ncn3)cccc2s1 [AMG-517] ? not fulfilled

Try the compound COc1cc(Nc2c(C#N)cnc3cc(OCCCN4CCN(C)CC4)c(OC)cc23)c(Cl)cc1Cl [Bosutinib (SKI-606), Bosutinib, reference compound] not fulfilled

Try the compound CC(C)(C)c1cc(/C=C(\C#N)C(N)=S)cc(C(C)(C)C)c1O [Tyrphostin AG 879] fulfilled
